Values from patent US20230339970A1

# measuredTarget: human recombinant GST cleaved CSNK1D (Homo sapiens, UniProt P48730)
# Construct: GST (cleaved yes)
# Sequence (P48730 whole entry): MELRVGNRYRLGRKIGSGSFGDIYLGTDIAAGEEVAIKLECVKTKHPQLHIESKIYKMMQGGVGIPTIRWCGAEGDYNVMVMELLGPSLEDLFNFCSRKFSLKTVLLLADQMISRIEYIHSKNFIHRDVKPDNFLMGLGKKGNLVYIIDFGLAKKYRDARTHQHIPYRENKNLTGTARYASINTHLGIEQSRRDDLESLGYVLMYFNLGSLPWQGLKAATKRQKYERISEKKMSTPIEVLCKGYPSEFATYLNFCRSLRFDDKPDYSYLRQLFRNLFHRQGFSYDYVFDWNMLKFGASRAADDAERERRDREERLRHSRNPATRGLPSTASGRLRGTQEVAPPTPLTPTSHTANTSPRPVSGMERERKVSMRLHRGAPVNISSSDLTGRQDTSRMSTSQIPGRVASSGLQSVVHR
# experiment: Purified Enzyme Assay (ADP-Glo CSNK1D Kinase Assay)
# cond: 2 nM CSNK1D; peptide substrate 150 μM; ATP 20 μM; 45 minutes at room temperature
measuredProperty: IC50 (nM)

>>> print(df.to_string())
                                   molecule                            measuredtarget  measuredproperty  reportedresult
0  Fc1ccc(-c2nn3c(c2-c2ccnc4[nH]ncc24)C[C@H](F)C3)cc1  human recombinant GST cleaved CSNK1D (Homo sapiens, UniProt P48730)              IC50               1
1  Fc1ccc(-c2nn3c(c2-c2ccnc4[nH]ncc24)CO[C@@H](C(F)(F)F)C3)cc1  human recombinant GST cleaved CSNK1D (Homo sapiens, UniProt P48730)              IC50               2
2  [2H]C([2H])([2H])C1(C([2H])([2H])[2H])Cn2nc(-c3ccc(F)cn3)c(-c3c(Cl)c(C)nc4[nH]ncc34)c2CO1  human recombinant GST cleaved CSNK1D (Homo sapiens, UniProt P48730)              IC50              25
3  Cc1nc(-c2c(-c3ccc(F)cc3)nn3c2COC(C(F)(F)F)C3)c2cn[nH]c2n1 (single isomer, unassigned) [Example 376]  human recombinant GST cleaved CSNK1D (Homo sapiens, UniProt P48730)              IC50               4
4  Cc1nc2[nH]nc(C)c2c(-c2c(-c3ccc(F)cn3)nn3c2CC[C@]2(C3)CC2(F)F)c1F (single isomer, unassigned)  human recombinant GST cleaved CSNK1D (Homo sapiens, UniProt P48730)              IC50              70
5  [2H]C([2H])([2H])C1(C([2H])([2H])[2H])Cn2nc(-c3ccc(F)cn3)c(-c3c(F)cnc4[nH]ncc34)c2CO1  human recombinant GST cleaved CSNK1D (Homo sapiens, UniProt P48730)              IC50               5

A. COCC1(F)CCc2c(-c3c(F)c(C)nc4[nH]ncc34)c(-c3ccc(F)cn3)nn2C1 (single isomer, unassigned) [Example 308]
B. Cc1cc(-c2c(-c3ccc(F)cc3)nn3c2C[C@H](F)C3)c2cn[nH]c2n1
*Q* Hi team, can someone confirm which has the larger IC50: A or B ? Thanks. Refer to your chosen entry by its label in the reply.
*A* A

A. Cc1nc2[nH]nc(C)c2c(-c2c(-c3ccc(F)cn3)nn3c2C[C@@H]2C[C@@H]23)c1F
B. Cc1cc(-c2c(-c3ccc(F)cn3)nn3c2CO[C@@H](C)C3)c2cn[nH]c2n1 (single isomer, unassigned) [Example 88]
*Q* Min IC50? A | B Refer to your chosen entry by its label in the reply.
*A* A
(A: 5 nM, B: 12 nM)

----------
# measuredTarget: human CSNK1D (Homo sapiens, UniProt P48730)
# Sequence (P48730 whole entry): as above
# experiment: Whole Cell nBRET CSNK1D Binding Assay
# cond: living CHO cells stably expressing human CSNK1D tagged with nanoluciferase; NanoBret tracer 130 nM; 2 hours at 37 C
measuredProperty: IC50 (µM)

Please review the following examples before continuing.
In [3]: df
Out[3]:
                                   molecule  reportedresult
0  Cc1cc(-c2c(-c3ccc(F)cc3)nn3c2OCC(C)(C)C3)c2cn[nH]c2n1           0.002
1  Cc1cnn2ccc(-c3c(-c4ccc(F)cn4)nn4c3COC(C)(C)C4)cc12            1.04

a. c1cc(-c2c(-c3cscn3)nn3c2CCCC3)c2cn[nH]c2n1
b. Cc1nc(-c2c(-c3ccc(F)cc3)nn3c2CC[C@@]2(C3)CC2(F)F)c2cn[nH]c2n1 (single isomer, unassigned)
*Q* Hi team, can someone confirm which has the larger IC50: a or b ? Thanks. Refer to your chosen entry by its label in the reply.
*A* a
(a: 0.995 µM, b: 0.373 µM)
